Each entry below carries its reported growth inhibition.
Experiment: NCI Yeast Anticancer Drug Screen. Data for the mec2-1 strain (AID 157)
Details: S. cerevisiae mec2-1 strain, at 50.0 µM, hits give high values
About 79,000 compounds went through this panel and 15% of them were active in at least one assay; those are over-represented in the sample as a whole. Where a SMILES comes first, the peptide text is derived from it.
Please respond with the number in % and leave the unit unwritten.

Provide growth inhibition value for the following compound: CC(=O)N(C)CCCCCCN(C)C(C)=O
8.05

Provide growth inhibition value for the following compound: CCCCc1c2c(nc3c1CCc1cc4c(nc1-3)-c1nc3c(c(CCCC)c1CC4)CCC/C3=C\c1ccccc1)/C(=C/c1ccccc1)CCC2
3.2

Provide growth inhibition value for the following compound: CC(CC#N)NC(=O)C1CCC(N)=N1 (stereo not given)
-18.2

Provide growth inhibition value for the following compound: CC(C)CC(NC(=O)C(CCC(=O)O)NC(=O)CNC(=O)CNC(=O)C(CO)NC(=O)C(CC(C)C)NC(=O)C(NC(=O)C(CO)NC(=O)C(C)NC(=O)C(CCCNC(=N)N)NC(=O)C(C)NC(=O)CN)C(C)C)C(=O)NC(CC(=O)O)C(=O)NC(CCCNC(=N)N)C(=O)NC(Cc1c[nH]c2ccccc12)C(=O)NC(Cc1ccc(O)cc1)C(N)=O (stereo not given) (H-GARASVLSGGELDRWY-NH2; configuration not given here)
-7.15

Provide growth inhibition value for the following compound: CCCOc1ccc(/C=C\c2cc(OC)c(OC)c(OC)c2)cc1
3.9

* * *

Assay: NCI Yeast Anticancer Drug Screen. Data for the sgs1 mgt1 strain (AID 161);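 note: 0% = growth of cultures given vehicle only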
Conditions: S. cerevisiae sgs1 mgt1 strain, at 50.0 µM, hits give high values
About 79,000 compounds went through this panel and 15% of them were active in at least one assay; those are over-represented in the sample as a whole.
Mark y for reported growth inhibition of 10% or greater; mark n for anything smaller.

# bool: growth inhibition of O=C(O)CNC(=O)CNC(=O)C(CCC(=O)OCc1ccccc1)NC(=O)OCc1ccccc1 (centres undefined) >= 10%
y

# bool: growth inhibition of C=C1CC[C@H]2C(C)=CC[C@@H]3[C@H](OC(=O)[C@H]3CN(C)C)[C@@H]12 >= 10%
n

# bool: growth inhibition of CCCC(=O)OCC1OC(n2ccc(N)nc2=O)C(OC(=O)CCC)C1OC(=O)CCC (centres undefined) >= 10%
y

# bool: growth inhibition of Cn1c(=O)c2c(n(C)c1=O)n(C)c(=O)n2C >= 10%
n

# bool: growth inhibition of CCCCCCCN(CCCCCCC)CC(O)c1c(OC)c2ccccc2c2ccccc12 (centres undefined) >= 10%
y

# bool: growth inhibition of CN(C)CCC(OC(=O)c1ccccc1Cl)c1ccccc1 (centres undefined) >= 10%
y

* * *

Experiment: NCI Yeast Anticancer Drug Screen. Data for the mec2-1 strain (AID 157)
Conditions: S. cerevisiae mec2-1 strain, at 50.0 µM, hits give high values
Compounds without any hit were thinned out: in the full panel of roughly 79,000, 15% have a hit.
Each entry below carries its reported growth inhibition.
Please respond with the number in % and leave the unit unwritten.

Cc1ccc(S(=O)(=O)N/N=C(/c2ccccc2)c2ccsc2C)cc1    37.3
O=COCc1ccc(Cl)cc1Cl    -2.75
S=C(S)N(Cc1ccccc1)Cc1ccccc1    -3
Cc1[nH]c(=O)[nH]c(=O)c1CCS    1.2
CCCCOC(=O)C1C=C(N)CCC1 (stereo unspecified)    6.8
CCCCCC(=O)OCCN(C)C    -24.2

Provide growth inhibition value for the following compound: CC(C)CC(C)(O)C#CC(C)(O)CC(C)C (stereo unspecified)
-25.4

Provide growth inhibition value for the following compound: CC1OC2(CC(OCc3ccccc3)C1OCc1ccccc1)OCCO2 (stereo unspecified)
-3.85

* * *

Experiment: NCI Yeast Anticancer Drug Screen. Data for the cln2 rad14 strain (AID 165);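 note: 0% = growth equal to vehicle treated cultures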
Settings: S. cerevisiae cln2 rad14 strain, at 50.0 µM, hits give high values
This is part of a sample that, as a whole, favours compounds with a hit. Of some 79,000 tested, about 15% had one in any assay.
Each entry below carries its reported growth inhibition.
Please respond with the number in % and leave the unit unwritten.

COc1cccc2c1CCC(=O)C2    8

Provide growth inhibition value for the following compound: C=C1C(=O)OC2C1C(=O)C/C(C)=C/CCC1(C)OC21 (configuration not stated)
34

Provide growth inhibition value for the following compound: CCOC(=O)C(CCC(=O)OC)C(=O)OCC
-28.2

Provide growth inhibition value for the following compound: C=CC(CO)N1CCCCC1 (configuration not stated)
-8.9

Provide growth inhibition value for the following compound: O=C1CC(=O)N(C=C2C(=O)NC(=O)NC2=O)C(=S)N1
11.2

Provide growth inhibition value for the following compound: Cc1c(Cl)cccc1NC(=O)Oc1ccc(F)cc1Cl
7.35

Provide growth inhibition value for the following compound: Cc1nc(C(N)=S)sc1C(=O)/C=C/c1c(O)ccc2ccccc12
23.8

Provide growth inhibition value for the following compound: Cc1cccc(C(C)C)c1NC(=O)C(=O)C(C#N)c1ccc(CC#N)cc1 (configuration not stated)
-40

Provide growth inhibition value for the following compound: CC1(C)C2CC(c3ccccc3)C1/C(=C/O)C2=O (configuration not stated)
36.8

Provide growth inhibition value for the following compound: O=c1[nH]cc(F)c(=O)n1-c1ccco1
-0.55

Provide growth inhibition value for the following compound: Oc1c(Cl)cc(Cl)cc1C1N2CCCCC2C2c3cccn3-c3ccccc3N21 (configuration not stated)
14.2

Provide growth inhibition value for the following compound: CCCCN(CCCC)Cc1ccnc(C)c1O
8.7

* * *

Test: NCI Yeast Anticancer Drug Screen. Data for the mlh1 rad18 strain (AID 175)
Details: S. cerevisiae mlh1 rad18 strain growth inhibition; at 50.0 µM
About 79,000 compounds went through this panel and 15% of them were active in at least one assay; those are over-represented in the sample as a whole. Calls of active or inactive are those of the source. No stated cut-off is given here; in the data, active means growth inhibition above about 70%; inactive means the rest.
Choose one outcome from this list and give only that: 1 = active, 0 = inactive

Some solved cases for reference:
CN(C)c1nc2oc(-c3ccccc3)c(-c3ccccc3)c2c2nncn12    0
CCCCC(CC)COC(=O)C(C)CCC (stereo not drawn)    0
COC(=O)/C(=C/c1ccc(OC)cc1)C(C(=O)O)=C1CCCCC1    0
CS(=O)(=O)c1ccc2c(c1)-c1ccc([N+](=O)[O-])cc1C2=O    0
O=C1C=CC(=O)c2c1c1c(c3c2C2c4ccccc4C3c3ccccc32)C2c3ccccc3C1c1ccccc12    0

Could you check what this test reported for Cc1ccc(CNC(=O)Nc2c(C)cccc2C)cc1C ?
0

Could you check what this test reported for Nc1nc(-c2ccccc2)nc2nc3[nH]c(=O)[nH]c(=O)c3nc12 ?
0

Could you check what this test reported for O=C(C#Cc1ccccc1)[O][Sn]([c]1ccccc1)([c]1ccccc1)[c]1ccccc1 ?
1

Could you check what this test reported for CN(C)C1CS(=O)(=O)OC2=C1CCSc1ccccc12 (stereo not drawn) ?
0

Could you check what this test reported for O=c1[nH]nc(-c2ccc(Cl)cc2)[nH]1 ?
0

Could you check what this test reported for CCSC(SCC)C(NC(C)=O)C(OC(C)=O)C(OC(C)=O)C(COC(C)=O)OC(C)=O (stereo not drawn) ?
0

Could you check what this test reported for O=C1c2ccccc2C(O)(c2ccc(O)cc2)c2ccccc21 ?
0

Could you check what this test reported for CC(C)CC(NC(=O)COc1cc(Cl)ccc1Cl)C(=O)O (stereo not drawn) ?
0

Could you check what this test reported for COC(=O)c1[nH]c(=O)[nH]c(=S)c1N ?
0

* * *

Test: NCI Yeast Anticancer Drug Screen. Data for the mlh1 rad18 strain (AID 175)
Conditions: S. cerevisiae mlh1 rad18 strain growth inhibition; at 50.0 µM
The panel holds about 79,000 compounds, 15% with a hit somewhere; the sample as a whole holds those more often. Activity calls are given as the source filed them. Cut-off read from the data, not from the text of the source: active = growth inhibition above about 70%; inactive = the rest.
Choose one outcome from this list and give only that: active, inactive

Some solved cases for reference:
CC(=O)/C=C/CCC(=O)/C=C/C(=O)OC(CCC(=O)/C=C/C(=O)O)CC(C)=O (stereo not drawn)    inactive
COc1ccc(C(O)(c2ccccc2C)c2ccccc2OC)cc1 (stereo not drawn)    inactive
CC(Cc1cccc2ccccc12)(C(=O)O)C(=O)O    inactive
O=C(O)CCC1CCc2cccc(O)c2C1=O (stereo not drawn)    inactive
CCC(C)c1cc(CN(C)C)cc(C(C)CC)c1O (stereo not drawn)    inactive
O=C(O)Cc1ccccc1[N+](=O)[O-]    inactive
C=C(Br)CNC(=O)Nc1ccc(Cl)c(Cl)c1    inactive
O=C(O)COc1ccc(C(=O)/C(SS/C(C(=O)c2ccc(OCC(=O)O)c(Cl)c2Cl)=C2\C=C(c3ccc(F)cc3)SS2)=C2/C=C(c3ccc(F)cc3)SS2)c(Cl)c1Cl    active

Could you check what this test reported for C/C(N=NC(=S)N1CCCCC1)=C1\C=CC=CN1O ?
inactive

Could you check what this test reported for CC(C)C1=C(Cc2ccccc2)C(=O)O/C1=C\c1cc(Cl)c(O)c(Cl)c1 ?
inactive

Could you check what this test reported for CC(C)(C)Oc1cc(F)c(C(C)(C)C)cc1C(C)(C)C ?
inactive

Could you check what this test reported for Nc1nc2c(c(-c3ccc(Cl)cc3)n1)CN(c1ccc(Br)cc1)C2=O ?
inactive

Could you check what this test reported for Cc1ccc(C)c(NC(=O)CC/C(=N\NC(=O)c2c(O)ccc3ccccc23)C(C)C(=O)c2ccc(O)cc2)c1 (stereo not drawn) ?
inactive

Could you check what this test reported for CNC(=O)NC1CCC(C)CC1 (stereo not drawn) ?
inactive

Could you check what this test reported for COc1cc(C=C2N=C(c3ccccc3)N(n3c(-c4ccccc4)nc4ccccc4c3=O)C2=O)cc(OC)c1OC ?
inactive

Could you check what this test reported for CC(C)CC(=O)c1ccc2ccccc2c1O ?
inactive

Could you check what this test reported for C/C=C\C(=O)OCC(C)COC(=O)/C=C/C (stereo not drawn) ?
inactive

Could you check what this test reported for OC(NN=C1CCCC1)(C(F)(F)Cl)C(F)(F)Cl ?
inactive

Could you check what this test reported for O=C1C=CC(=O)N1CCCCN1C(=O)C=CC1=O ?
inactive
